Test system: glioma (U87)
Assay: In vitro cytostatic effect, Alamar Blue viability assay, U87
Assay type: cell-based, human
Conditions: U87 cells, overnight treatment 0.08-100 µM, then 72 h culture
propertyMeasured: IC50
Dear colleague, please send the value followed by its unit.

Q: Fill in the recorded IC50 for this compound, with glioma (U87) as test system: O=C(O)CC(=O)OC[C@H]1O[C@@H](Oc2c(-c3ccc(O)cc3)oc3cc(O)cc(O)c3c2=O)[C@H](O)[C@@H](O)[C@@H]1O [Compound 3]
Result: 86.3 µM

----------
System: glioma (U87)
Experiment: In vitro cytostatic effect, Alamar Blue viability assay, U87
Assay type: cell-based, human
Settings: Homo sapiens, U-87 MG, U87 cells, overnight treatment 0.08-100 µM, then 72 h culture
# Lookup of reported pIC50 keyed by entry
Kindly note that pIC50 refers to -log10 of the concentration in mol/L and answer with the value alone.

Q: Would you kindly share the measured pIC50 for O=C(O)CC(=O)OC1CC(OC(=O)C=Cc2ccc(O)c(O)c2)(C(=O)O)CC(OC(=O)C=Cc2ccc(O)c(O)c2)C1OC(=O)CC(=O)O (stereo not shown) ?
Result: 4.31

// next item, pIC50 requested
Q: Would you kindly share the measured pIC50 for COc1cccc2c1C(=O)c1c(O)c3c(c(O)c1C2=O)C[C@@](O)(C(C)=O)C[C@@H]3O[C@H]1C[C@H](N)[C@H](O)[C@H](C)O1 [Daunomycin, reference compound] ?
Result: 6.22
